Catalogue of pIC50 values
Target: Cholesteryl ester transfer protein (Homo sapiens, UniProt P11597)
Sequence (P11597 whole entry): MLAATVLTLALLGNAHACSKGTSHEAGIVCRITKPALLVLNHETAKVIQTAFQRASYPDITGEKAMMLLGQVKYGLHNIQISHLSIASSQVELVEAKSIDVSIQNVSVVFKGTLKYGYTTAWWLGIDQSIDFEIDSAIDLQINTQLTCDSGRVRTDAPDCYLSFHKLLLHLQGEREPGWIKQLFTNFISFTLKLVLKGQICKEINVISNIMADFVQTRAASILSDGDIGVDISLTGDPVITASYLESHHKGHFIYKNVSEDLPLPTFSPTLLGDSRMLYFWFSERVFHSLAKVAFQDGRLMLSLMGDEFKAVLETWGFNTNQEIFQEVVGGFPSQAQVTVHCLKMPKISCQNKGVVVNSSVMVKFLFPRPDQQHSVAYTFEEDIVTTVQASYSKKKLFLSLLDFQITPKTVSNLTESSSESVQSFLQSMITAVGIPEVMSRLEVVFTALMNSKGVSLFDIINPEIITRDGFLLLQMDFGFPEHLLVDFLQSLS
Test: Inhibition of CETP-mediated [3H]cholesteryl ester transfer activity in human plasma after 2.5 hrs by scintillation counter
In plain terms, pIC50 is the concentration in mol/L turned into minus its base-10 logarithm.

Lookup result for CC(C)(C)CC(=O)OC(Cc1ccccc1)(c1cccc(C(F)(F)F)c1)c1ccc(Cl)cn1 (racemic) ; measured pIC50: 5.03

Lookup result for "O=C(NC1CCCC1)N[C@@](Cc1ccc(F)cc1)(c1cc(F)cc(C(F)(F)F)c1)c1ccc(Cl)cn1" ; measured pIC50: 5.00

Lookup result for "N#Cc1ccc([C@@](Cc2ccccc2)(NC(=O)NC2CCCC2)c2cc(F)cc(C(F)(F)F)c2)nc1" ; measured pIC50: 4.92

Lookup result for "O=C(NC1CCCC1)N[C@@](Cc1ccccc1)(c1cc(F)cc(C(F)(F)F)c1)c1ccc(F)cn1" ; measured pIC50: 5.12
